ASSAYED_TARGET: X/β5 (Homo sapiens, UniProt P20618+P28074)
EXPERIMENT_NOTES: Proteasome activity assay, purified 20S proteasome, Ac-WLA-AMC
pIC50: −log10 of the molar value.
PARAMETER_MEASURED: pIC50

In [3]: df
Out[3]:
                                   molecule  parameter_measured  result
0  CC(C)C[C@H](NC(=O)[C@H](Cc1ccccc1)NC(=O)[C@@H]1CCCN1C(=O)CNC(=O)c1cnccn1)C(=O)[C@@]1(C)CO1 [Analogue 16]               pIC50  < 5.00

Moving on to the next molecule.
(Q) Query pIC50 for CC(=O)NCC(=O)N1CCC[C@H]1C(=O)N[C@@H](Cc1ccccc1)C(=O)N[C@@H](CC(C)C)C(=O)[C@@]1(C)CO1 [YU102]
(A) < 5.00

###

ASSAYED_TARGET: LMP2/β1i (Homo sapiens, UniProt P28065+P40306)
EXPERIMENT_NOTES: Proteasome activity assay, purified 20S proteasome, Ac-PAL-AMC
Format: biochemical
Set-up: purchased R&D Systems
PARAMETER_MEASURED: IC50
Provide a numeric answer, followed by its unit.

(Q) Query IC50 for CC(C)C[C@H](NC(=O)[C@H](Cc1ccccc1)NC(=O)[C@@H]1CCCN1C(=O)CNC(=O)c1cnccn1)C(=O)[C@@]1(C)CO1 [Analogue 16]
(A) 70 nM
